These entries and their values trace back to ChEMBL document CHEMBL1201862.

Tested on: A498
Test summary: NCI tumour cell line growth inhibition, 48 h
Active and inactive are the calls of the source. No stated cut-off is given here; in the data, active = GI50 up to about 1.1 µM and inactive = higher.
Observed property: GI50

Item CCOC(=O)c1c(-c2ccc(OC)cc2)c(C#N)c(=S)n(C2OC(COC(C)=O)C(OC(C)=O)C(OC(C)=O)C2OC(C)=O)c1C (configuration not stated) has what recorded GI50?
> 100 µM (inactive)

# GI50 lookup, item `CC(=O)/C(=C/NC(=S)Nc1ccc(Cl)c(Cl)c1)C(=O)Nc1ccccc1C`
26.2 µM (inactive)

GI50 lookup needed for `CN1Cc2cc3c(cc2-c2ccccc21)OCO3` , thanks.
> 100 µM (inactive)

Item `Oc1ccc(C(=C(Br)c2ccccc2)c2ccc(O)cc2)cc1` has what recorded GI50?
18.3 µM (inactive)

Can you look up the measured GI50 of `N=C(N)N/N=C\c1c(-c2cccc([N+](=O)[O-])c2)nc2sc(Cl)cn12` for me?
27.4 µM (inactive)

Reported GI50, compound O=C(CCc1ccccc1)CC1OC(=O)C(Cl)=C1Cl (configuration not stated) : ____
34 µM (inactive)

Requested read-out: GI50. Entry: CC1c2cc(c3c(c2O)CN([C@@H](C)C2CCCCC2)CO3)C(C)c2cc(c3c(c2O)CN([C@@H](C)C2CCCCC2)CO3)C(C)c2cc(c3c(c2O)CN([C@@H](C)C2CCCCC2)CO3)C(C)c2cc1c1c(c2O)CN([C@@H](C)C2CCCCC2)CO1 (some centres not stated)
2.06 µM (inactive)

* * *

System: NCI-H23
Test summary: NCI tumour cell line growth inhibition, 48 h
The source made the active and inactive calls. Rule as the data show it: active = GI50 up to about 1.1 µM and inactive = higher.
Please respond with reported GI50 for every item in the list.

Requested read-out: GI50. Entry: `COc1ccc2nc3c([N+](=O)[O-])ccc(NCCN(C)C)c3c(N)c2c1`
1.69 µM (inactive)

Need GI50 of `COc1cc(-c2cc(O)c3cc4c(cc3n2)OCO4)cc(OC)c1OC` , thanks.
56.2 µM (inactive)

GI50 lookup needed for `Cc1ccc(-c2cc(-c3ccc(Cl)cc3)nc(/N=C3\C(=O)N(CN4CCOCC4)c4ccccc43)n2)cc1` , thanks.
18.8 µM (inactive)

Request the reported GI50 associated with `C/C(=N\NC(=O)CC(=O)Nc1ccc(Cl)cc1)c1cc2ccccc2oc1=O`
> 100 µM (inactive)

Suppose we examine the compound `CN(C)c1nc(-c2ccccc2)c(C(=O)c2c[nH]c3ccccc23)s1` ; what GI50 value has been reported?
30 µM (inactive)

Which GI50 value belongs to `CN(C)c1cccc(/C=C(\C#N)c2ccccc2)c1` ?
1.44 µM (inactive)

May I ask what GI50 has been recorded for OCC1OC(n2cnc3c2NC=NC[C@H]3O)C(O)C1O (some centres undefined) ?
445 µM (inactive)

So what does the record say about GI50 for `C/C(=N\n1c(Cc2ccccc2)n[nH]c1=O)c1ccccc1` ?
> 100 µM (inactive)

I have this compound here, `Nc1nc(CCc2n[nH]c(N)n2)n[nH]1` , and I need its recorded GI50.
> 100 µM (inactive)

Return reported GI50; argument: `CN(C)c1ccc(/C=C2\Oc3ccccc3C2=O)cc1`
> 100 µM (inactive)

Look at this compound and give its reported GI50. CC1CNC(c2cccc(-c3nc(-c4cccc(C5=NC(C)CN5)c4)nc(N(C)C)n3)c2)=N1 (centres undefined)
2.14 µM (inactive)

# query: GI50 of entry `Cc1ccc(Oc2ccc(C(=O)c3cccc(C(=O)c4ccc(Oc5ccc(C)cc5)cc4)n3)cc2)cc1`
> 100 µM (inactive)

Can you share its GI50? I mean this compound: `Cc1cc(N(CCC#N)CCC#N)ccc1/C=C(\NC(=O)/C=C/c1ccccc1)C(=O)Nc1ccccc1Cl`
> 100 µM (inactive)

Which GI50 is listed for O=C1C2C3CC(C4C5C=CC(C5)C34)C2C2C3CC(C12)C1C2C=CC(C2)C31 (centres undefined) ?
> 100 µM (inactive)

* * *

Test system: SK-OV-3
Test summary: NCI tumour cell line growth inhibition, 48 h
Calls of active or inactive are those of the source. No stated cut-off is given here; in the data, active = GI50 up to about 1.1 µM and inactive = higher.
Observed property: GI50

# get_value(readout='GI50', item= `C[n+]1c2ccccc2c(NCC(=O)O)c2ccccc21` )
> 100 µM (inactive)

Report GI50 for `O=C(CCOS(=O)(=O)CF)N1CCN(C(=O)CCOS(=O)(=O)CF)CC1` please.
> 27.2 µM (inactive)

Given the entry `O=C1CN=C(C[N+](=O)[O-])c2ccccc21` , report its measured GI50.
> 100 µM (inactive)

What GI50 value was documented for this compound, `CC1(C)CC(=O)C(=CNc2nc(-c3ccccc3)cs2)C(=O)C1` ?
> 100 µM (inactive)

Dear colleague, I am looking for the recorded GI50 of the following compound: `Cc1ccc2c(O)cc(-c3sccc3C)nc2n1`
1.45 µM (inactive)

Can you share its GI50? I mean this compound: `C=C1c2nc3ccccc3n2C=C(c2ccccc2)N1c1ccccc1`
> 100 µM (inactive)

I have this compound here, `O=C(CCCN1CCC(O)(c2ccc(Cl)cc2)CC1)c1ccc(F)cc1` , and I need its recorded GI50.
34.9 µM (inactive)

# GI50 lookup, item `COc1cc(OC)cc(Oc2nc3ccc(C(F)(F)F)cc3nc2-c2ccccc2)c1`
> 100 µM (inactive)

Quick one: GI50 of `CC(C)OC(=O)OCSc1ccccc1/N=C/c1cccc([N+](=O)[O-])c1` ?
> 10 µM (inactive)

May I ask what GI50 has been recorded for `CC1=CC2(C)C=C[C@@H]1C(=O)[C@@]1(C)CC[C@@](O)(C(C)C)[C@H]1CC2` ?
23.6 µM (inactive)

What value of GI50 has been recorded for this entry: `C/C(Cl)=N\OC(=O)Nc1ccc(C)cc1`
17.3 µM (inactive)

Report GI50 for `C#C[C@]1(O)CC[C@H]2[C@@H]3CCC4=C/C(=N/OCCN(C)C)CC[C@]4(C)[C@H]3CC[C@@]21C` please.
40.1 µM (inactive)

For the compound `C=C[C@@](C)(/C=C/c1ccc(O)cc1)CCC=C(C)C` , what GI50 is on record?
16.3 µM (inactive)

# query: GI50 of entry `CCCCC(=O)/C=c1/cc(C)[nH]c2cccc3cnn1c32`
> 100 µM (inactive)

Give the measured GI50 of COS(=O)CCOC(=O)c1ccccc1SSc1ccccc1C(=O)OCCS(=O)OC (configuration not stated) .
> 100 µM (inactive)

Look at this compound and give its reported GI50. `N#Cc1c(-c2ccc([N+](=O)[O-])cc2)c(C#N)c(=O)n(NS(=O)(=O)c2ccccc2)c1O`
> 100 µM (inactive)

Data request, read-out GI50, for `COC(=O)/C=C/c1ccc2c(c1)CC1(Cc3ccccc3C1)C2`
> 100 µM (inactive)

# input compound: `O=C(Cc1ccccc1)Nc1nc2ccc(Cl)cc2c2nc(-c3ccco3)nn12` ; wanted: its GI50
39.6 µM (inactive)

# input compound: `COc1ccc(C2=C(OC(C)=O)c3cccn3-c3ccccc3S2)cc1` ; wanted: its GI50
2.65 µM (inactive)

Which GI50 is reported for this compound? `O=C(CCc1cccc(O)c1)NCCCNC(=O)CCc1cccc(O)c1`
> 100 µM (inactive)

Fill blank: measured GI50 of the compound `Cc1c2ccncc2c(C)c2c1[nH]c1ccccc12` is ____.
1.61 µM (inactive)

May I ask what GI50 has been recorded for `CN(C)Cc1ccc(C(C)(C)C)cc1-c1cc(C(C)(C)C)ccc1CN(C)C` ?
> 100 µM (inactive)

Data request, read-out GI50, for `CS(=O)(=O)OCCCNCCCOS(C)(=O)=O`
1550 µM (inactive)

Form field: reported GI50 of CC(C)c1oc(=O)cc2c1C(O)C1OC(=O)C3(C)C(O)C4OC4C2(C)C13 (configuration not stated)
5.2 µM (inactive)

Please report the recorded GI50 for `C/C(=C\CO)CC/C=C(\C)CNc1ccc([N+](=O)[O-])cc1` .
> 100 µM (inactive)

Dear colleague, I am looking for the recorded GI50 of the following compound: O=C(CCc1ccccc1)CC1OC(=O)C(Cl)=C1Cl (configuration not stated)
45.6 µM (inactive)

What value of GI50 has been recorded for this entry: `C[C@]12CC[C@H](O)CC1=CC[C@@H]1[C@@H]2CC[C@]2(C)C(=O)CC[C@@H]12`
> 100 µM (inactive)

* * *

Tested on: 786-0
Test summary: NCI tumour cell line growth inhibition, 48 h
The source made the active and inactive calls. No stated cut-off is given here; in the data, active = GI50 up to about 1.1 µM and inactive = higher.
Could you please pick one outcome from this set? true (active), false (inactive)

Recorded call for COc1ccc(C(c2ccc(C(C)C)cc(=O)c2O)c2ccc3cccnc3c2O)cc1 (stereo not given) ?
false

I would be grateful if you could indicate the recorded call for `CN(c1ccc(Cl)cc1)S(=O)(=O)c1ccc([N+](=O)[O-])cc1` .
false

Which result was noted for this molecule in the test: `COc1ccc(N(CC(=O)O)S(=O)(=O)c2ccccc2)cc1`
false

Called result for `S=c1nc(N2CCCCC2)ss1`
false

Outcome logged for `O=C(O)c1nc(-c2ccc(Cl)c(Cl)c2)nc2ccc(Cl)cc12` in this assay:
false

Called result for `Cc1ccc(Oc2ccc(C(=O)c3cccc(C(=O)c4ccc(Oc5ccc(C)cc5)cc4)n3)cc2)cc1`
false

What was the test verdict on O=C(CC1C(=O)Nc2ccccc2[S+]1[O-])Nc1ccccc1 (stereo not given) ?
false

How was `N=C(N)NS(=O)(=O)c1ccc(NCc2c3ccccc3nc3ccccc23)cc1` classified in this test?
true

Fill in: this test's call for CCOC(=O)C1=[N+]([O-])OC2=C(O)CCCC21 (stereo not given) is ___
false

Outcome? `O=C1Nc2ccccc2C(=O)/C1=C/NC(=S)NCCc1ccccc1`
false

# lookup: test call for `O=C1O/C(=C/c2ccccc2)C(c2ccccc2)=C1O`
false

Which outcome was assigned to `COc1ccc2c(c1)Cc1c(NCCN(C)C)ccc(C(=O)NCCCN(C)CCCNC(=O)c3ccc(NCCN(C)C)c4c3Nc3ccc(OC)cc3C4)c1N2` in this test?
true

Test call for this molecule, please: `CCOC(=O)CSC(=O)NCCCl`
false

For this molecule, state the assay outcome: O=S(=O)(N/N=C1\CC2CCC1C2)c1ccccc1 (stereo not given)
false

Any idea what this test logged for `CCN(CC)c1ccc(C(=C2C=CC(=[N+](CC)CC)C=C2)c2ccc(N(CC)CC)cc2)cc1` ?
true

Outcome logged for CCOC(=O)C1(C#N)C(c2ccccc2)CC(O)(c2ccc(Cl)cc2)C(C(=O)c2ccc(Cl)cc2)C1c1ccccc1 (stereo not given) in this assay:
false

# lookup: test call for C=CCCC1(O)C(O)C(CO)O[C@H](O[C@@]2(CO)OC(CO)C(O)C2O)C1O (stereo not given in full)
false

I'd appreciate the recorded outcome for NC(=O)NC(=O)C1CCCCC1C(=O)O (stereo not given) from this test.
false

GET /call?item= `COc1cccc(-c2nc(-c3cnccn3)n(Cc3ccccc3)n2)c1` returns the recorded outcome of this test.
false

Lab log entry: `O=S(=O)(O)c1cc(/N=N/c2c(O)ccc3ccccc23)cc2c(S(=O)(=O)O)cccc12` — outcome as called in the assay?
false

Kindly provide the recorded test outcome for the following molecule: `Sc1ccccc1S`
false

Please indicate how the test categorized CP(=O)(O)C(N)c1ccccc1 (stereo not given) .
false

So what was the verdict on `CC(=O)C(C(C)=O)[C@H]1OC(C)(C)O[C@H]1[C@H]1COC(C)(C)O1` in this test?
false

So what was the verdict on `CC12CC3CC(C1)CC(N=[N+]=[N-])(C3)C2` in this test?
false

Could you check what this test reported for `COC(=O)c1sc(=O)n(-c2ccccc2)c1SCc1ccccc1` ?
false

Call for entry CCCCCCCCCCCCCCCCCCNc1ccn(C2OC(COP(=O)(O)OCC3OC(n4ccc(N)nc4=O)C(O)C3O)C(O)C2O)c(=O)n1 (stereo not given) :
false

Name the outcome recorded for `CCN(CC)CCCNc1ncc(C)c2c1c1ccc3c(O)cccc3c1n2C` in the assay.
true

Give the logged outcome of this assay for the following molecule: `Cc1ccccc1C1=[N+]([O-])c2ccc(Cl)cc2C1=O`
false

How was `C=C1c2nc3ccccc3n2C=C(c2ccc(OC)cc2)N1c1ccccc1` classified in this test?
false

Answer briefly: the call reported for `Cc1c(S(=O)(=O)c2ccccc2)c(N)n(CCN(C)C)c1C` in this assay.
false
